System: RXF 393 renal
Assay: NCI-60 one-dose screen, 48 h
Details: 10 µM unless noted
About 83,000 compounds went through this panel and 20% of them were active in at least one assay; those are over-represented in the sample as a whole. Calls of active or inactive are those of the source. Rule for the calls: active = growth percent below 10; inactive = the rest.
Permitted responses: 1 (yes) (active), 0 (no) (inactive)

[Q] Hello, I am checking results. What call was entered for "O=C1/C(=C/c2cccc(Cl)c2)CCc2ccccc21" ?
[A] 0 (no)

[Q] And what about the molecule "COc1cccc(CCN2C(=O)CCC3=C2CCC3=O)c1" ?
[A] 0 (no)

[Q] Then "N/C(=N\c1nc2ccccc2s1)NC(=O)Nc1ccccc1Cl" ?
[A] 1 (yes)

[Q] Quick one: "Cc1ccc(/C=C/C(=O)c2ccc(F)cc2)s1"
[A] 0 (no)

[Q] # iterate: "CC[C@@H](c1ccc(O)c(O)c1)[C@@H](CC)c1ccc(O)c(O)c1"
[A] 0 (no)

[Q] What do we get for "COc1cc(OC)c2c(c1Cl)O[C@]1(C2=O)C(OCc2ccccc2)=CC(=O)C[C@H]1C" ?
[A] 1 (yes)

[Q] Would you kindly repeat that for "O=C(C(=O)N1CCOCC1)c1cn(CCCn2cc(C(=O)C(=O)N3CCOCC3)c3ccccc32)c2ccccc12" ?
[A] 0 (no)

[Q] # repeat for "O=C1Nc2ccc(C(=O)O)c(O)c2C1=O"
[A] 0 (no)

[Q] // query: "N#Cc1c(-c2ccc(F)cc2)n2c(nc1=O)SC(=O)C2=O"
[A] 0 (no)

[Q] Try "COc1ccc2cc(C3=CC(=O)CCC3)ccc2c1" next.
[A] 0 (no)

[Q] Similarly, "c1cc[n+](Cc2ccnc3ccccc23)cc1" ?
[A] 0 (no)

[Q] "COc1ccc2nc(NC(=O)CN3CCn4c(nnc4C(F)(F)F)C3)sc2c1" ?
[A] 0 (no)

[Q] Follow-up entry: O=C(O)C1C(c2ccccc2)c2ccccc2C(O)C1CO (configuration not stated)
[A] 0 (no)

[Q] Repeat for the following molecule: "COc1cc(/C=C/c2cc(/C=C/c3ccc(O)c(OC)c3)n(C(=O)c3ccc(Cl)cc3)n2)ccc1O"
[A] 0 (no)

[Q] Lookup "CCN(CC)CCCCCCCNc1c2ccc(Cl)cc2nc2ccc(OC)cc12"
[A] 1 (yes)

[Q] Request: "O=C1/C(=C/c2ccccc2Cl)CCc2ccccc21"
[A] 0 (no)

[Q] Please give the result for CCSCC1CC(O)(c2ccccc2)C(c2ccccc2)C(c2ccc(Cl)cc2)O1 (configuration not stated) too.
[A] 1 (yes)

[Q] And "CCOc1cc(/C=C/C(=O)C(C(=O)/C=C/c2ccc(OC(=O)CNc3nnc(C)s3)c(OCC)c2)C(=O)CNc2nnc(C)s2)ccc1OC(=O)CNc1nnc(C)s1" ?
[A] 1 (yes)

[Q] Could you do the same for "N#Cc1c(-c2ccccc2)cc(-c2ccccc2)n(CC(=O)O)c1=O" , please?
[A] 0 (no)

[Q] Queued: "COc1cccc(/C=N/Nc2nc3ccccc3s2)c1OC"
[A] 0 (no)

[Q] Next record, please: CC(C)CC1NC(=O)C(CCCN)NC(=O)C(C(C)C)NC(=O)C2CCCN2C(=O)C(Cc2ccccc2)NC(=O)C(CC(C)C)NC(=O)C(CCCN)NC(=O)C(C(C)C)NC(=O)C2CCCN2C(=O)C(Cc2ccccc2)NC1=O (configuration not stated)
[A] 1 (yes)

[Q] Okay, and "[N-]=[N+]=NCc1ncc(-c2ccc(C(F)(F)F)cc2)c(NC2CCCCCC2)n1" ?
[A] 0 (no)

[Q] Try the molecule CCN1CC2=C(Nc3nc(SC)[nH]c(=O)c3C2c2cc(OC)c(OC)c(OC)c2)/C(=C/c2cc(OC)c(OC)c(OC)c2)C1 (configuration not stated)
[A] 0 (no)

[Q] // next record "CC(=O)[C@H]1CC[C@H]2[C@@H]3C[C@H](C)C4=CC(=O)CC[C@]4(C)[C@H]3C(=O)C[C@]12C"
[A] 0 (no)

[Q] Can you check "COc1cc(-c2nnc(-c3nc(-c4cc(OC)c(OC)c(OC)c4)n4ccccc34)o2)ccc1N" next?
[A] 0 (no)

[Q] Please give the result for "N#Cc1c(-c2ccccc2)cc(-c2ccccc2)n(CCCC(=O)O)c1=O" too.
[A] 0 (no)

[Q] Same question, "COC(=O)C1(NC(=O)CNC(=O)OCc2ccccc2)CCCC1" this time
[A] 0 (no)

[Q] Next: "CCN(Cc1cccc(S(=O)(=O)[O-])c1)c1ccc(C(=C2C=CC(=[N+](CC)Cc3cccc(S(=O)(=O)O)c3)C=C2)c2ccccc2S(=O)(=O)O)cc1"
[A] 0 (no)

[Q] Quick one: "O=C(C(=O)c1cc(Br)ccc1O)c1cc(Br)ccc1O"
[A] 0 (no)

[Q] Let us now turn to "CCN(CC)CCNCC(=O)Oc1ccc(/C=C/C(=O)CC(=O)/C=C/c2ccc(OC(=O)CNCCN(CC)CC)c(OC)c2)cc1OC"
[A] 1 (yes)

[Q] Now the molecule CC(=O)N1N=C(c2ccc(Cl)cc2)CC1c1c(C)nn(-c2ccccc2)c1N(C)Cc1ccccc1 (configuration not stated)
[A] 0 (no)

[Q] Let us now turn to "CCOC(=O)OCC(=O)[C@@]1(O)CC[C@H]2[C@@H]3CCC4=CC(=O)CC[C@]4(C)[C@H]3[C@@H](O)C[C@@]21C"
[A] 0 (no)

[Q] What do we get for "Cc1sc2nc(NCCc3cccs3)[nH]c(=O)c2c1C" ?
[A] 0 (no)

[Q] // repeat for "O=C1c2cccc(NCCN=Cc3ccccc3O)c2C(=O)c2c(NCCN=Cc3ccccc3O)cccc21" and report
[A] 0 (no)

[Q] Try the molecule Cc1ccccc1NC(=O)NC(CC(N)=O)c1ccc2c(c1)nc(-c1cccc(Oc3ccc(C(C)(C)C)cc3)c1)n2CCCN1CCCCC1C (configuration not stated)
[A] 0 (no)

[Q] # repeat for "O=C1C(=O)/C(=C/c2ccccc2)CCCCCC/C1=C/c1ccccc1"
[A] 1 (yes)

[Q] And for "Cc1[nH]ccc2cc3nc4ccccc4c3cc12" ?
[A] 0 (no)
